Test System: T1, human CD71 extracellular domain (human, UniProt P02786 89-760)
T1 construct: also called hCD71; human CD71-ECD
T1 sequence (P02786 89-760): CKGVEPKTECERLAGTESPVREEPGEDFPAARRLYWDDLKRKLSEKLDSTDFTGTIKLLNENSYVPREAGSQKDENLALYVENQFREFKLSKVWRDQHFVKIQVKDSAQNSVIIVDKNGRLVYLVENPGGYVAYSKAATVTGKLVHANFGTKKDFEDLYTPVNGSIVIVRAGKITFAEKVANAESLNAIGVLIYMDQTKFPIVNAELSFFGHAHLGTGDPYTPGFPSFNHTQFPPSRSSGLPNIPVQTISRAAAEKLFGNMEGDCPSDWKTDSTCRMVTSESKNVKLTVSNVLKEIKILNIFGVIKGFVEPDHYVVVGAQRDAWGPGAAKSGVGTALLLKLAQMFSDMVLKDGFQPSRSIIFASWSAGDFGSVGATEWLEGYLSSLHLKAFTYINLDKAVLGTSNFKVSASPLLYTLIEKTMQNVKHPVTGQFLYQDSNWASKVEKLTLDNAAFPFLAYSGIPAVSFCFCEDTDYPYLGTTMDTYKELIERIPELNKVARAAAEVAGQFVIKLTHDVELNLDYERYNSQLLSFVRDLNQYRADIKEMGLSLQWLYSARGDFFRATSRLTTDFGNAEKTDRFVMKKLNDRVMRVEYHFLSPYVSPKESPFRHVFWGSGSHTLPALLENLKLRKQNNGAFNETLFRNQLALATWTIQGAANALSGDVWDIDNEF
Assay Comment: primary ELISA; also: test concentration or dose not given here
Property: RLU
Number plus unit, in that order.

For orientation, consider the following solved cases.
CD71-binding FN3 domain of SEQ ID NO: 151 (designed binder) MSLPAPKNLVVSRITEDSARLSWTAPDAAFDSFEIAYFETCRTGEAIVLTVPGSERSYDLTGLKPGTEYRVWIGGVKGGVWSRPLSAIVTT : 4.04e+06 RLU
CD71-binding FN3 domain of SEQ ID NO: 157 (designed binder) MSLPAPKNLVVSRVTEDSARLSWTAPDAAFDSFEIGYGEFTYYGEAIVLTVPGSERSYDLTGLKPGTEYWVQIGGVKGGNWSNPLSAIFTT : 2.89e+06 RLU
CD71-binding FN3 domain of SEQ ID NO: 133 (designed binder) MSLPAPKNLVVSRVTEDSARLSWTAPDAAFDSFKIKYAEYDRYGEAIALFVPGSERSYDLTGLKPGTEYFVHIDGVKGGTDSQPLVASFTT : 1.83e+06 RLU

Attention now turns to another entry.
## Input Give the reported value of RLU for this record: CD71-binding FN3 domain of SEQ ID NO: 168 (designed binder) MSLPAPKNLVVSRVTEDSARLSWTAPDAAFDSFIIGYLEPQPPDEAIALYVPGSERSYDLTGLKPGTEYNVTIQGVKGGFPSLPLVATFTT
## Output 3.94e+06 RLU

Data provenance: patent US20260151494A1
